Where do the numbers come from? From PubChem BioAssay.

Test: PSAC antagonists in infected red cells, primary screen, cell-based, P. falciparum Indochina, OD700, 1 h (AID 1154)
Conditions: P. falciparum Indochina infected RBC osmotic lysis, higher = more signal, called active from +8 up or from −8 down
Assign 1 whenever z-score does not fall below 4; assign -1 whenever it does.

compound=COCCOC(=O)N1C(=O)[C@@]2(c3cc(C#CCCO)ccc31)[C@H](C(N)=O)[C@H]1C(=O)O[C@H](c3ccccc3)[C@H](c3ccccc3)N1[C@@H]2c1ccc(O)cc1 assignedcategory=-1
compound=COc1cc2c(cc1OC)CN(C(=O)[C@@H]1[C@H]3C(=O)O[C@H](c4ccccc4)[C@H](c4ccccc4)N3[C@H](c3ccc(O)cc3)[C@@]13C(=O)Nc1ccccc13)CC2 assignedcategory=-1
compound="O=C1NC(=O)C2C1C=CC(C(O)c1cccs1)N2Nc1ccc(Cl)cc1Cl (stereo unspecified)" assignedcategory=-1
compound=C=CCOC(=O)[C@H]1[C@@H]2C(=O)O[C@@H](c3ccccc3)[C@@H](c3ccccc3)N2[C@@H](c2ccc(OCCOC(=O)[C@H]3C[C@H]4C(=O)N[C@@H](CCCCNC(C)=O)C(=O)N4[C@H]3c3cccc(OCCO)c3)cc2)[C@]12C(=O)Nc1ccccc12 assignedcategory=-1
compound="C=C(C)[C@@H]1CC=C(C(O)C2C=CC3C(=O)N(c4ccccc4)C(=O)C3N2Nc2ccccc2)CC1 (stereo partly specified)" assignedcategory=1
compound=O=C1c2ccccc2[C@](Cc2ccccc2I)(C(=O)NCCN2CCOCC2)[C@H](c2ccc(CO)cc2)N1Cc1ccccc1Cl assignedcategory=1

====

Biological target: Torsin-1A-interacting protein 2 (Homo sapiens) (UniProt Q8NFQ8)
Sequence (Q8NFQ8 whole entry, looked up): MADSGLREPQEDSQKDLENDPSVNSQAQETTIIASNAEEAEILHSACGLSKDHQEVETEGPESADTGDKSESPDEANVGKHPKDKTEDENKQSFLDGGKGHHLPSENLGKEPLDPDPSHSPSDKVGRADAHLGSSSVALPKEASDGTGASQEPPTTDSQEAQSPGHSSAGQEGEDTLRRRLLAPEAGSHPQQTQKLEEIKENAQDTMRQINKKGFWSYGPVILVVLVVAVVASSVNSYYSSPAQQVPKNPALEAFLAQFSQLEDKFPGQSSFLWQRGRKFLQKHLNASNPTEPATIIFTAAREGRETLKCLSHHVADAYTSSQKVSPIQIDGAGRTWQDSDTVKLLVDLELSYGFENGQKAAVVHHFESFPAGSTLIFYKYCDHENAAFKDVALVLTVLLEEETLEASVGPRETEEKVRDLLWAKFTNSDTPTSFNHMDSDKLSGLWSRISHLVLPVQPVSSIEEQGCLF
Test: LULL1 binders on small-molecule microarray, primary screen, cell lysate, human LULL1 lysate, 635/667 nm fluorescence (AID 1092);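 also: probe is lysate of COS7 cells overexpressing human LULL1; score merges per-feature 667 nm fluorescence with signal-to-noise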
Conditions: hLULL1 lysate binding, 635 nm fluorescence, higher = more signal
Listed compounds paired with reported composite z-score
measurementType: composite z-score

mol=COc1ccc(C#Cc2ccc3c(c2)[C@]2(C(=O)N3)[C@H](C(=O)Nc3nc4ccccc4s3)[C@H]3C(=O)O[C@H](c4ccccc4)[C@H](c4ccccc4)N3[C@@H]2c2ccc(O)cc2)cc1 measurementtype="composite z-score" measurement=3.26
mol=COc1cc2c(cc1OC)CN(C(=O)[C@@H]1[C@H]3C(=O)O[C@H](c4ccccc4)[C@H](c4ccccc4)N3[C@H](c3ccc(O)cc3)[C@@]13C(=O)Nc1ccccc13)CC2 measurementtype="composite z-score" measurement=3.04
mol=C=C(COC)/C(=C/C[C@@H](OC(C)=O)c1ccc(OCCO)cc1)c1cnc2ccccc2c1 measurementtype="composite z-score" measurement=0.014
mol=CO[C@H]1O[C@H](CO)[C@@H](OC(=O)Nc2cccc(F)c2)[C@H](OC(=O)Nc2ccccc2)[C@@H]1OC(=O)Nc1ccccc1 measurementtype="composite z-score" measurement=3.12
mol=COc1cc2c(cc1OC)CN(C(=O)[C@@H]1[C@H]3C(=O)O[C@H](c4ccccc4)[C@H](c4ccccc4)N3[C@H](c3ccccc3OCCO)[C@@]13C(=O)Nc1ccc(C#CCCO)cc13)CC2 measurementtype="composite z-score" measurement=3.02
mol=C=CC(=C)[C@H]1Oc2ccccc2S(=O)(=O)N2CCC[C@@H]12 measurementtype="composite z-score" measurement=-0.562
mol=O=C1C[C@]2(c3ccc([N+](=O)[O-])cc3)C(=O)N(CC(F)(F)F)c3cc(CO)ccc3[C@H]2N1C1CCCCC1 measurementtype="composite z-score" measurement=-0.0451
mol=C=C[C@H](OC)[C@@H](OC(=O)Nc1ccc(OC)cc1)c1ccc(O)c(F)c1 measurementtype="composite z-score" measurement=1.89
mol=CC(C)C[C@@H]1NC(=O)[C@@H]2C[C@H](C(=O)O)[C@H](c3cccc(OCCO)c3)N2C1=O measurementtype="composite z-score" measurement=1.89
mol=COc1ccc([Si](C)(C)[C@H]2[C@H](CCO)O[C@@]3(C(=O)N(Cc4ccc(N(C=O)c5ccccc5)cc4)c4ccccc43)[C@@H]2C)cc1 measurementtype="composite z-score" measurement=1.12
mol=COC(=O)[C@@]1(Cc2ccc(OC)cc2)[C@H]2c3cc(C(=O)N4CCCC4)n(CCN4CNCC4=O)c3C[C@H]2CN1C(=O)c1ccccc1 measurementtype="composite z-score" measurement=3.77
mol=O=C1O[C@H](c2ccccc2)[C@H](c2ccccc2)N2[C@H]1[C@@H](C(=O)N1CCCCCCC1)[C@]1(C(=O)Nc3ccc(C#CC4=CCCCC4)cc31)[C@H]2c1ccc(OCCO)cc1 measurementtype="composite z-score" measurement=3.7
mol=COC(=O)C[C@H]1O[C@]2(C(=O)N(C)c3ccccc32)[C@@H](C)[C@@H]1[Si](C)(C)F measurementtype="composite z-score" measurement=2.24
mol=COCCCNC(=O)[C@@H]1c2ccccc2C(=O)N(Cc2ccccc2Cl)[C@H]1c1ccc(CO)cc1 measurementtype="composite z-score" measurement=2.26

====

Test system: Noggin (protein binding on small-molecule microarray)
Assay: Noggin binders on small-molecule microarray, primary screen, biochemical, 635/667 nm fluorescence (AID 1095);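 also: score merges 667 nm feature fluorescence with signal to noise over triplicate slides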
Conditions: 635 nm fluorescence, higher = more signal
Would you mind labelling by composite z-score? At or over 0.06 is Y, under is N.

molecule=CN(C)C(=O)[C@]1(Cc2ccccc2N=[N+]=[N-])N=C(c2ccc(OCCCO)cc2)O[C@@H]1c1ccccc1N=[N+]=[N-] targetundertest="Noggin (protein binding on small-molecule microarray)" assignedcategory=Y
molecule=COc1ccccc1CN1C(=O)c2ccccc2[C@@H](C(=O)NC2CC2)[C@@H]1c1ccc(CO)cc1 targetundertest="Noggin (protein binding on small-molecule microarray)" assignedcategory=Y
molecule=CN(C)CCCCCCNC(=O)[C@H]1C[C@H]2C(=O)N3CCC[C@H]3C(=O)N2[C@H]1c1ccc(O)cc1 targetundertest="Noggin (protein binding on small-molecule microarray)" assignedcategory=Y
molecule=O=C1c2ccccc2[C@](Cc2ccccc2I)(C(=O)NCC(F)(F)F)[C@H](c2ccc(CO)cc2)N1Cc1ccccc1Cl targetundertest="Noggin (protein binding on small-molecule microarray)" assignedcategory=Y
molecule="COc1cc(Br)cc(C(O)C2C=CC3C(=O)N(C)C(=O)C3N2N2CCCCC2)c1OC (stereo not drawn)" targetundertest="Noggin (protein binding on small-molecule microarray)" assignedcategory=N
molecule=C[N+](C)(C)CCCCCCNC(=O)[C@@H]1C[C@@H]2C(=O)N[C@@H](Cc3ccccc3)C(=O)N2[C@@H]1c1cccc(OCCO)c1 targetundertest="Noggin (protein binding on small-molecule microarray)" assignedcategory=Y
molecule="CN1C(=O)C2C=CC(C(O)C3CC=CCC3)N(N(c3ccccc3)c3ccccc3)C2C1=O (stereo not drawn)" targetundertest="Noggin (protein binding on small-molecule microarray)" assignedcategory=N

====

Test: MM1S cell viability effects, profiling panel, calcein-AM fluorescence, 48 h, basal (AID 1165);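 also: viability of MM1S multiple myeloma cells under basal unstimulated conditions; test concentration not given here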
Conditions: higher = more signal
measurementType: z-score

molecule=COCCOC(=O)N1C(=O)[C@@]2(c3cc(C#CCNC(N)=O)ccc31)[C@H](C(=O)Nc1nc3ccccc3s1)[C@H]1C(=O)O[C@H](c3ccccc3)[C@H](c3ccccc3)N1[C@@H]2c1ccc(OCCO)cc1 measurement=-2.58
molecule="C=C(C)[C@@H]1CC=C(C(O)C2C=CC3C(=O)N(c4ccccc4)C(=O)C3N2Nc2ccccc2)CC1 (stereo partly drawn)" measurement=-0.646
molecule=CCOC(=O)[C@H]1C/C=C/C[C@H](C(=O)OCC)C(=O)O[C@H]2[C@@H](OC)O[C@H](CO)[C@@H](OC(=O)c3c(OC)cccc3OC)[C@@H]2OC1=O measurement=-3.3

====

Target: Neurogenic locus notch homolog protein 2 (Homo sapiens)
Experiment: Notch2 binders on small-molecule microarrays, primary screen, biochemical, small-molecule microarray, 635 nm fluorescence, stem cell growth factors (AID 1073)
Conditions: Notch2 binding, higher = more signal
Below, each of the compounds is paired with its reported composite z-score value.
measurementType: composite z-score

compound=COCCOC(=O)N1C(=O)[C@@]2(c3cc(C#Cc4ccc(OC)cc4)ccc31)[C@H](c1ccccc1OCCO)N1[C@H](c3ccccc3)[C@H](c3ccccc3)OC(=O)[C@H]1[C@@H]2C(=O)NC[C@H](O)c1ccccc1 measurement=1.09
compound="C=CCC(OC(C)=O)[C@@H]1[C@@H](N(Cc2ccc(-c3ccccc3)cc2)C(=O)Cc2ccc(OC)cc2)c2cc(OCCCO)ccc2N1C(=O)Cc1ccc2ccccc2c1 (stereo partly drawn)" measurement=-0.299
compound=Cc1ccc(S[C@]2(C(=O)NC3CC3)CC(=O)N(Cc3ccccc3)[C@@H]2c2ccc(CO)cc2I)cc1 measurement=-0.823
compound="CN1C(=O)C2C=CC(C(O)c3ccco3)N(Nc3ccccc3)C2C1=O (stereo not drawn)" measurement=1.06
compound="N#Cc1ccc(NN2C(C(O)C(c3ccccc3)c3ccccc3)C=CC3C(=O)N(c4ccccc4)C(=O)C32)cc1 (stereo not drawn)" measurement=1.65
compound=O=C1C[C@]2(c3ccc([N+](=O)[O-])cc3)C(=O)N(CC(F)(F)F)c3cc(CO)ccc3[C@H]2N1C1CCCCC1 measurement=-0.488
compound="CC1(C)[C@@H]2CC(C(O)C3C=CC4C(=O)N(c5ccccc5)C(=O)C4N3Nc3ccc([N+](=O)[O-])cc3)=C[C@H]1C2 (stereo partly drawn)" measurement=1.7
compound="CN1C(=O)C2C=CC(C(O)c3ccccc3)N(N(c3ccccc3)c3ccccc3)C2C1=O (stereo not drawn)" measurement=0.924
compound=COCCOC(=O)N1C(=O)[C@@]2(c3cc(C#CC4(O)CCCCCC4)ccc31)[C@H](c1ccc(OCCO)cc1)N1[C@H](c3ccccc3)[C@H](c3ccccc3)OC(=O)[C@H]1[C@@H]2C(=O)N1CCN(c2ncccn2)CC1 measurement=1.03
compound="CCCCC(CC)C(O)C1C=CC2C(=O)N(Cc3ccccc3)C(=O)C2N1n1cnnc1 (stereo not drawn)" measurement=0.0048
compound=C[C@@]1([C@@H](NC(=O)c2ccc(-c3ccccc3)cc2)c2ccc(Cl)cc2)C[C@H]1C1CCCCC1 measurement=1.43
compound="COc1cc(C(O)C2C=CC3C(=O)NC(=O)C3N2Nc2ccccn2)cc(OC)c1OC (stereo not drawn)" measurement=1.4
compound="CN1C(=O)C2C=CC(C(O)C#Cc3ccccc3)N(N3CCCCC3)C2C1=O (stereo not drawn)" measurement=1.44
compound=COC(=O)[C@@]1(Cc2ccc(OC)cc2)[C@H]2c3cc(C(=O)N(C)C)n(Cc4ccc(S(C)(=O)=O)cc4)c3C[C@H]2CN1C(=O)c1ccccc1 measurement=1.24
compound=CCCCCCc1nc(-c2cc(C)c(OC)c(C)c2)cc2c1[Si](C(C)C)(C(C)C)OC2 measurement=-0.274
compound=O=C1O[C@@H](c2ccccc2)[C@@H](c2ccccc2)N2[C@@H](c3ccccc3OCCO)[C@]3(C(=O)Nc4ccccc43)[C@@H](C(=O)Nc3nc4ccccc4s3)[C@H]12 measurement=1.15
compound=COC(=O)[C@@]1(CCS(=O)(=O)c2ccccc2)N=C(c2ccc(OCCCO)cc2)O[C@H]1c1ccccc1CN=[N+]=[N-] measurement=0.914
compound=COC(=O)[C@@]1(Cc2ccccc2)N=C(c2ccc(OCCCO)cc2)O[C@H]1c1ccccc1 measurement=-0.165
compound=COc1ccc(C(=O)Nc2ccc(CN3C(=O)[C@]4(O[C@H](CCO)[C@@H]([Si](C)(C)c5ccc(OC)cc5)[C@@H]4C)c4ccccc43)cc2)cc1 measurement=0.561
compound="C[C@H]1C2[C@H](Cc3ccccc3)NC(=O)[C@]23C(=O)N[C@H](Cc2ccccc2)C(=O)N2CCC[C@H]2C(=O)NC/C=C\\C/C=C/C3[C@@H]2O[C@]12C (stereo partly drawn)" measurement=0.451
compound=Cc1ccc(S[C@]2(C(=O)NCCCN(C)C)CC(=O)N(Cc3cc(C(F)(F)F)cc(C(F)(F)F)c3)[C@@H]2c2ccc(CO)cc2)cc1 measurement=-1.28
compound=COc1ccccc1CN1C(=O)c2ccccc2[C@@]2(Cc3ccccc3N(CC(C)C)C2=O)[C@@H]1c1ccc(CO)cc1 measurement=-0.304
compound=CCOC(=O)C[C@H]1[C@H](OC(=O)c2ccc(C(=O)c3ccccc3)cc2)[C@@H](NC(=O)c2ccc3ccccc3n2)c2cc(OCCCO)ccc2N1C(=O)c1ccccc1 measurement=0.454
compound=O=C1N(Cc2ccccc2)c2ccccc2[C@@H]2OC(c3ccc(OCCCO)cc3)=N[C@]12CCS(=O)(=O)c1ccccc1 measurement=0.888
compound="CC(C)C(O)C1C=CC2C(=O)N(c3ccccc3)C(=O)C2N1Nc1ccc([N+](=O)[O-])cc1 (stereo not drawn)" measurement=0.951
compound=C=CCNC(=O)[C@@H]1[C@H]2C(=O)O[C@H](c3ccccc3)[C@H](c3ccccc3)N2[C@H](c2ccc(OCCO)cc2)[C@@]12C(=O)Nc1ccc(C#CCC(C(=O)OC)C(=O)OC)cc12 measurement=0.89
compound=C=CC[C@]1(C(=O)NCc2ccccc2)N=C(c2ccc(OCCCO)cc2)O[C@H]1c1ccccc1N=[N+]=[N-] measurement=1.13
compound=CC(C)NC(=O)[C@@]1(c2ccc([N+](=O)[O-])cc2)CC(=O)N(C2CCCCC2)[C@@H]1c1ccc(CO)cc1I measurement=-0.0016
